assay: OD615 S. cerevisiae growth inhibition, permissive medium, pilot counter-assay, permissive growth control for S. cerevisiae lifespan shortening project (AID 705); conditions: OD615, 24 h, at 10 µM, stronger effect = higher value
READOUT_NAME: growth inhibition (%)

>>> print(df.to_string())
                                    compound  display_unit  readout_value
 0  Cc1ccc(S(=O)(=O)NC2OC(=O)C(Cl)=C2Cl)cc1 (stereo not drawn)             %          -17.3
 1  Cn1c(Cn2c(=O)sc3ccccc32)nnc1SCC(=O)N1CCc2ccccc21             %          -8.97
 2  Cc1noc(C)c1S(=O)(=O)N(CC(=O)NCc1ccc2c(c1)OCO2)c1ccc(C(C)C)cc1             %          -13.7
 3  COc1ccc(N2CC(C(=O)Nc3ccc(S(=O)(=O)Nc4nc(C)cc(C)n4)cc3)CC2=O)cc1 (stereo not drawn)             %          -8.26
 4  COc1ccc(C2=CC(c3ccc(Cl)cc3)n3cnnc3N2)cc1OC (stereo not drawn)             %          -1.79
 5       COc1cc2c(cc1OC)CN(C(=O)C(C)(C)C)CC2             %          -8.97
 6  O=C(CCCCn1c(=O)[nH]c2ccccc2c1=O)NC1CCN(Cc2ccccc2)CC1             %          -14.6
 7             Nc1nc(Nc2cccc(F)c2)nc2ccccc12             %          -11.6
 8  CCOc1ccc(N2CC(C(=O)NCCC3=CCCCC3)CC2=O)cc1 (stereo not drawn)             %          -1.23
 9         Cc1nnc(SCC(=O)Nc2ccc3c(c2)OCO3)o1             %         -0.465
10           OCCn1c(SCCOc2ccccc2F)nc2ccccc21             %          -4.44
11  Cc1ccc(N2C(=O)CC(N3CCN(C4CCc5ccccc5C4)CC3)C2=O)cc1 (stereo not drawn)             %          -2.06
12  CCN1C(=O)c2ccc(-c3nc4ccccc4c(=O)o3)cc2C1=O             %          -8.45
13  COC(=O)C1C(=O)c2c([nH]c(C(=O)OC3CCCC3C)c2C)CC1C (stereo not drawn)             %          -4.87
14       OCCOCCn1c(-c2ccccc2)nc(=S)c2c1CCCC2             %          -3.65
15  CCn1c(C2CC(=O)N(Cc3ccccc3)C2)nc2ccccc21 (stereo not drawn)             %           7.85
16  Cc1cc2oc3c(c(=O)c2cc1C)C(c1ccc(F)cc1)N(CCCN1CCOCC1)C3=O (stereo not drawn)             %           4.43
17  CCOc1ccc(C(C)NC(=O)CCC(=O)O)cc1 (stereo not drawn)             %          -4.12
18              Cc1nc2ccccn2c1C(=O)NC1CCCCC1             %           4.45
19     Cc1cc2cc(CNC(=O)c3ccc(Br)o3)ccc2[nH]1             %          -6.49
20               O=C(NCCc1ccccc1)c1ccc(Br)o1             %          -7.62
21             CCn1c(/C=N/n2cnnc2)nc2ccccc21             %          -6.04
22  COCCn1c(=O)[nH]c2cc(C(=O)NCCN3CCN(c4ccccc4)CC3)ccc2c1=O             %           -5.1

----------
assay: viability gain of MRP-1-high H69AR cells under doxorubicin, pilot screen, MRP-1 activator project, CellTiter-Glo, duplicate (AID 807); conditions: H69AR viability with doxorubicin, CellTiter-Glo luminescence; at 10 µM; stronger effect = higher value;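 note: compound pretreatment 18-22 h then 72 h combined with doxorubicin; 0% = doxorubicin alone and 100% = vehicle without doxorubicin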
# key: entry, value: viability increase
READOUT_NAME: viability increase (%)

>>> print(df.to_string())
                                    molecule  display_unit  readout_value
 0                   CCCCNC(=O)Nc1ccc(Br)cn1             %           -1.6
 1  COc1cccc(C2=NOC(C(=O)N3CCN(C(=O)c4ccco4)CC3)C2)c1 (stereo not drawn)             %          -2.95
 2  O=C(OCCCCN1C(=O)c2ccccc2C1=O)c1ccc(S(=O)(=O)N2CCCC2)cc1             %           0.28
 3        CCOC(=O)CSCc1nc(-c2ccc(Cl)cc2)oc1C             %           1.98
 4  Cn1c(Cn2c(=O)sc3ccccc32)nnc1SCC(=O)N1CCCCCC1             %          -0.71
 5  COc1cc(C2C3=C(CC(C)(C)CC3=O)N(C)C(=O)N2C)cc(OC)c1OC (stereo not drawn)             %          -0.06
 6  Cc1ccc(C)c(N2CCN(CC(=O)Nc3ccc4[nH]c(=O)[nH]c4c3)CC2)c1             %          -5.54
 7  CC(=O)c1ccc(OCCCC(=O)NCC(c2ccco2)N(C)C)cc1 (stereo not drawn)             %          -4.73
 8  C=CCn1c2ccccc2c2nnc(SCN3C(=O)c4ccccc4C3=O)nc21             %           -4.7
 9  COc1ccc(-c2nc(CS(=O)CC(=O)NC3CCCc4ccccc43)c(C)o2)cc1OC (stereo not drawn)             %          -2.94
10         COc1ccc(CNC(=O)c2cc(C3CC3)on2)cc1             %          -1.95
11             Cc1ccc(OCCNC(=O)c2ccccc2N)cc1             %          -2.73
12           COc1cc(NC(=O)C2CCCC2)c(OC)cc1Cl             %          -3.09
13  O=C(C(Cc1ccccc1)n1cccc1)N1CCc2ccccc21 (stereo not drawn)             %          -3.05
14  CN(C)CCNC(=O)c1ccc(CS(=O)(=O)c2ccc(Br)cc2)o1             %          -0.05
15  Cc1ccc2oc(=O)c3cc(C(=O)NCCN4CCN(C)CC4)sc3c2c1             %          -1.81
16  CC1(C)CCCC2=C1CC1C(=O)N(O)C(=O)C1C2 (stereo not drawn)             %          -1.21
17         C=CCn1c(NCc2cc(C)ccc2O)nc2ccccc21             %          -2.74
18  CCOC(=O)C1=C(C)NC(=O)CC1c1cc2c(cc1Br)OCO2 (stereo not drawn)             %           -4.4
19  COc1ccc(Cn2c(=O)[nH]c3cc(C(=O)NCCCN4CCCC4=O)ccc3c2=O)cc1             %           0.19
20      CC(C)(C)n1nc2c(c1NC(=O)Cc1cccs1)CSC2             %          -1.56
21  Cn1c(=O)oc2cc(S(=O)(=O)NC3CCCc4ccccc43)ccc21 (stereo not drawn)             %          -1.98
22  CC1CCN(S(=O)(=O)c2ccc(NC(=O)c3cccs3)cc2)CC1             %          -5.18

----------
experiment: Restrictive medium S. cerevisiae growth inhibition, OD615, pilot screen of yeast lifespan reduction project, restrictive growth control (AID 706); details: OD615, 48 h, at 10 µM, stronger effect = higher value;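 note: modified DeaD lifespan yeast strain shifted to restrictive glucose medium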
READOUT_NAME: growth inhibition (%)

                                   molecule       readout_name  readout_value
0  CCN(CC)CCCNC(=O)C1c2ccccc2C(=O)N(C)C1c1ccc(OC)cc1 (stereo unspecified)  growth inhibition          -20.7
1  CC(C)NC(=O)c1ccc(CS(=O)(=O)c2ccc(Br)cc2)o1  growth inhibition           3.97
2  CCOCCCNC(=O)c1cc2c(-c3ccc(Cl)cc3)nn(C)c2s1  growth inhibition             11
3   COc1ccc(O)c(-c2[nH]ncc2C(=O)c2ccccc2)c1  growth inhibition          -2.28
4  COC(=O)C1C(=O)c2c([nH]c(C(=O)OC3CCCC3C)c2C)CC1C (stereo unspecified)  growth inhibition          -2.27
5  O=c1c2ccccc2nc(SCc2nnc(-c3ccccc3)o2)n1-c1ccccc1  growth inhibition           -8.7
